B1: ZBTB22 (parent)
chain: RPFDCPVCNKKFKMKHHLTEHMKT

Variants of: B1
method_notes: protein stability index of a GFP-peptide fusion (GPS, HEK-293T) (PSI 1-6); higher = more stable;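 also: lentivirally expressed fusions sorted by FACS into six bins by GFP to DsRed ratio, PSI derived from sequencing read proportions per bin multiplied by bin number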
condition_notes: c terminus: a fixed tail appended
For each record, write down the corresponding protein stability index.

See these solved cases before continuing.
>>> print(df.to_string())
                construct_sequence  test_result
0   RPADCPVCNKKFKMKHHLTEHMKT [F3A]         2.58
1  RPFDCPVCNKCFKMKHHLTEHMKT [K11C]         2.44
2   RPFDIPVCNKKFKMKHHLTEHMKT [C5I]         2.64
3   RPFDCPVANKKFKMKHHLTEHMKT [C8A]         2.99
4  RPFDCPVCNKKFKMKMHLTEHMKT [H16M]         2.71
5  RPFDCPVCNFKFKMKHHLTEHMKT [K10F]         2.34

Please give protein stability index, item by item, for the list that follows.
1. RPFDCPVCNKKFKMKHHLIEHMKT [T19I]
2. RNFDCPVCNKKFKMKHHLTEHMKT [P2N]
3. RPFDCPVCNYKFKMKHHLTEHMKT [K10Y]

Result block:
1. 3.07
2. 2.34
3. 2.29
